Test system: NCI-H1793
Assay: relative viability (nuclei count vs DMSO), 5 days (fraction); higher = more cells survive
Conditions: first compound 0.4 µM

{"compound": "O=C(O)c1ccc(-c2c[nH]c3ncc(-c4ccccc4)cc23)cc1C1CCCC1 + CS(=O)(=O)CCNCc1ccc(-c2ccc3ncnc(Nc4ccc(OCc5cccc(F)c5)c(Cl)c4)c3c2)o1 [Lapatinib] (partner 2 µM)", "relative viability": 0.969}
{"compound": "O=C(O)c1ccc(-c2c[nH]c3ncc(-c4ccccc4)cc23)cc1C1CCCC1 + COc1cc2c(Oc3ccc(NC(=O)C4(C(=O)Nc5ccc(F)cc5)CC4)cc3F)ccnc2cc1OCCCN1CCOCC1 [Foretinib] (partner 0.25 µM)", "relative viability": 0.702}
{"compound": "O=C(O)c1ccc(-c2c[nH]c3ncc(-c4ccccc4)cc23)cc1C1CCCC1 + Cc1cc(Nc2cc(N3CCN(C)CC3)nc(Sc3ccc(NC(=O)C4CC4)cc3)n2)n[nH]1 [Tozasertib] (partner 0.1 µM)", "relative viability": 0.513}
{"compound": "O=C(O)c1ccc(-c2c[nH]c3ncc(-c4ccccc4)cc23)cc1C1CCCC1 + CC(=O)Nc1cccc(-n2c(=O)n(C3CC3)c(=O)c3c(Nc4ccc(I)cc4F)n(C)c(=O)c(C)c32)c1 [Trametinib] (partner 0.02 µM)", "relative viability": 0.497}
